Entries annotated with measured pIC50
- measurementTarget: UniProtKB P07339
- Sequence (P07339 65-162 limits assumed): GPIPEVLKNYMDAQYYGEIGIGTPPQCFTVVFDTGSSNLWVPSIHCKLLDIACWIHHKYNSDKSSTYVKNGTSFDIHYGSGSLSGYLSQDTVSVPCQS
- Sequence (P07339 169-412 limits assumed): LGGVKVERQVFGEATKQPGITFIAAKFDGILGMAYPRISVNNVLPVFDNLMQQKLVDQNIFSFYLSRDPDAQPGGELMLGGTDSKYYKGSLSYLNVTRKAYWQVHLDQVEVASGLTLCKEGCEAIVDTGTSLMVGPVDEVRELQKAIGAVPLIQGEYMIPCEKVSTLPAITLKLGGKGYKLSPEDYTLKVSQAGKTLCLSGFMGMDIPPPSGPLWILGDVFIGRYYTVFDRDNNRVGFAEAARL
- testDetails: Inhibition of human recombinant CatD using Mca-GKPILFFRLK(DNP)-dR-NH2 as substrate after 1 hr by fluorescence analysis
pIC50: −log10 of the molar value.

Fill in: pIC50 of CC(C)(C)c1cccc(CN[C@H]2CS(=O)(=O)C[C@@H](Cc3ccc(N)nc3)[C@@H]2O)c1 (racemic) is ___
< 5.00

Follow-up item: CCc1cc(C[C@@H]2CS(=O)(=O)C[C@H](NCc3cccc(C(C)(C)C)c3)[C@H]2O)cc(F)c1NC(=O)CN(C)C
< 5.00

Follow-up item: CN(C)CC(=O)Nc1ccc(C[C@@H]2CS(=O)(=O)C[C@H](NCc3cccc(C(C)(C)C)c3)[C@H]2O)cc1F
< 5.00

Follow-up item: Nc1c(F)cc(C[C@@H]2CS(=O)(=O)C[C@H](N)[C@H]2O)cc1OC(C(F)(F)F)C(F)(F)F
< 5.00
